- target: T1, PUF4 RNA-binding domain (Saccharomyces cerevisiae, UniProt P25339 537-888)
- T1 sequence: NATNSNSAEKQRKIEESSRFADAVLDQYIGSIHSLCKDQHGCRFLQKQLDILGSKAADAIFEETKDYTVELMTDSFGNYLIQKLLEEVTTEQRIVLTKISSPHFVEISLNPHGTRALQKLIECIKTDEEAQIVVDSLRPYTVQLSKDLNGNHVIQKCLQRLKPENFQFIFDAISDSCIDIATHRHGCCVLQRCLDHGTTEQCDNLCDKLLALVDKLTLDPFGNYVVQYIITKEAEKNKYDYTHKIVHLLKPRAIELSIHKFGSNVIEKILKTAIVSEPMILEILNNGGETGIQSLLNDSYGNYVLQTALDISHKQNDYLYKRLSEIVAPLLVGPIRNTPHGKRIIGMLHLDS
- assay_summary: Mg; RNA-MaP; 20 mM Na-HEPES pH 7.4, 30 mM KOAc, 0.75 mM MgCl2, 0.1% Tween-20, 5% glycerol, 0.1 mg/mL BSA, 2 mM DTT; 25 C; 0.0125-409.6 nM protein
- assay_setup: tags: N-His6-TEV cleaved; C-SNAP kept, Cy3B-labelled; label: tethered on chip by stalled RNA polymerase
Measured pKd values are reported for all entries that follow.
Bear in mind: pKd is minus log10 of a mol/L concentration; give just that figure.

Look over these answered cases.
| binder | pKd |
| --- | --- |
| UCUCUUUGUACAGCUUCUCUU (ssRNA) [Ic_S1_P4E.1_K4.1_C4.1_H4.1_A4.1_[T5C]_[T7G]_F4.1_[T8C]_[A9T]_T4.1] | 7.11 |
| UCUCUUGCACACUAUUACUUCUCUU (ssRNA) [Id_ii_S1_P4E.4_K4.3_C4.2_[C-2G]_[T-1C]_H4.3_A4.1_F4.1_T4.2_[G10C]] | 7.13 |
| UCUCUUUGUAUUGUCUUCUCUU (ssRNA) [Ic_S1_P5E.1_K5.1_C5.1_H5.1_A5.1_[A7G]_F5.1_[T9C]_[A10T]_T5.1] | 7.00 |

Now, please, on to the next binder.
Record request: pKd value, item Id_ii_S4_P3E.3_K3.2_C3.2_[T-1C]_H3.2_A3.1_F3.1_T3.2_[A10G] (ssRNA) RNA: UUUGACAACUGAUCGUUCUUUCUCCUAUAUAUAUGUUCUUUCUCGAUCAGUUGUCUUU
6.90
